# Tested on: Staphylococcus aureus
# ASSAY COMMENT: Antibacterial activity against Staphylococcus aureus at 50 ug/well after 24 hrs by agar well diffusion method
# Type: functional
# ASSAY CONTEXT: read-out: DIZ
This listing pairs molecules with measured zone of inhibition at 50 µg/disc.
Return type: number; implicit unit mm.

Solved cases (4 shown):
Nc1nnc(CS(=O)(=O)/C=C\c2ccc(Cl)cc2)o1	16
Nc1nnc(CS(=O)(=O)c2n[nH]cc2-c2ccccc2)s1	22
Nc1nnc(CS(=O)(=O)c2c[nH]cc2-c2ccc(Cl)cc2)o1	9
Nc1nnc(CS(=O)(=O)/C=C\c2ccc(Cl)cc2)s1	24

Query: Consider the molecule shown here: `O=C(N[C@H](CO)[C@H](O)c1ccc([N+](=O)[O-])cc1)C(Cl)Cl` What is its recorded zone of inhibition at 50 µg/disc?
Result: 35

Query: Tell me the measured zone of inhibition at 50 µg/disc of `Cc1ccc(/C=C\S(=O)(=O)Cc2nnc(N)o2)cc1` , please.
Result: 12

Query: GET /values?readout=zone of inhibition at 50 µg/disc&item= `Nc1nnc(CS(=O)(=O)c2c[nH]cc2-c2ccccc2)s1`
Result: 22

Query: // lookup zone of inhibition at 50 µg/disc for `Cc1ccc(-c2c[nH]nc2S(=O)(=O)Cc2nnc(N)s2)cc1`
Result: 18

Query: Form field: reported zone of inhibition at 50 µg/disc of `Nc1nnc(CS(=O)(=O)c2n[nH]cc2-c2ccc(Cl)cc2)s1`
Result: 23
